Test system: speedwell
Protocol Description: Test C preemergence/postemergence greenhouse plant response rating 0 to 100
Assay type: in vivo, Veronica persica
Test Settings: Rate 16 g/ha; POSTEMERGENCE
Quantity Measured: Plant response rating (0 to 100), Speedwell

Consider the compound shown here: C#CCOc1cc(-c2nn3c(c2Br)CCCC3)c(F)cc1Cl What is its recorded Plant response rating (0 to 100), Speedwell?
100

# repeat for COCN1C(=O)COc2cc(F)c(-c3nn4c(c3Br)CCCC4)cc21
100

# repeat for CCN1C(=O)COc2cc(F)c(-c3nn4c(c3Cl)CCCC4)cc21
100

# repeat for C#CCN1C(=O)COc2cc(F)c(-c3nn4c(c3Br)CCCC4)cc21
100

# repeat for CCOC(=O)COc1cc(-c2nn3c(c2Cl)CCCC3)c(F)cc1Cl
95
